# System: OC-314 (Ovarian Carcinoma)
# assay overview: combination Emax (second highest fraction inhibited in the dose matrix, 72 h); higher = more inhibition; extreme values may be limits of the assay
The reader will find reported combination Emax values listed item by item below.

Past entries and their recorded results:
{"molecule": "Cc1cc2ncnn2cc1Nc1ncc2c(n1)n(C1CCOCC1)c(=O)n2C [AZD7648] + COc1cc([C@@H]2c3cc4c(cc3[C@@H](O[C@@H]3O[C@@H]5CO[C@@H](C)O[C@H]5[C@H](O)[C@H]3O)[C@H]3COC(=O)[C@H]23)OCO4)cc(OC)c1O [Etoposide] (first compound max 10 µM, 7x7, partner max 10 µM)", "recorded endpoint": "combination Emax", "result": 0.978}
{"molecule": "COc1nnc2ccc(N3CCC(c4ccc(OCCN5CCN(C)C(=O)[C@H]5C)cc4)CC3)nn12 [AZD5153] + C=CCn1c(=O)c2cnc(Nc3ccc(N4CCN(C)CC4)cc3)nc2n1-c1cccc(C(C)(C)O)n1 [AZD1775] (first compound max 1 µM, partner max 1 µM)", "recorded endpoint": "combination Emax", "result": 0.912}

Exercise: Please give the documented combination Emax of Cc1nc(Nc2ncc(C(=O)Nc3c(C)cccc3Cl)s2)cc(N2CCN(CCO)CC2)n1 [Dasatinib] + CC(=O)Nc1cccc(-n2c(=O)n(C3CC3)c(=O)c3c(Nc4ccc(I)cc4F)n(C)c(=O)c(C)c32)c1 [Trametinib] (first compound max 2 µM, 7x7, partner max 1 µM)
Solution: 0.781

Exercise: Please give the documented combination Emax of NC1(C(=O)N[C@@H](CCO)c2ccc(Cl)cc2)CCN(c2ncnc3[nH]ccc23)CC1 [Capivasertib] + C[C@@H]1COCCN1C2=NC(=NC(=C2)C3(CC3)[S@](=N)(=O)C)C4=C5C=CNC5=NC=C4 [AZD6738] (first compound max 10 µM, 7x7, partner max 10 µM)
Solution: 0.793
